System: MCF7 breast
Assay: NCI-60 one-dose screen, 48 h (100 = growth as untreated, 0 = no growth, -100 = all killed)
Conditions: 10 µM unless noted
This is part of a sample that, as a whole, favours compounds with a hit. Of some 83,000 tested, about 20% had one in any assay.
Class yes: growth at least 30%. Class no: growth below 30%.

Check out these entries, answers already filled in.
MOLECULE | CATEGORY_LABEL
CCN1C(=O)N(CC)C2Nn3c(s/c(=C4\C(=O)N(CC(C)C)c5ccccc54)c3=O)=NC21 (centres undefined) | no
COc1cccc(-c2nc(-c3ccc(NS(=O)(=O)c4ccccc4)cc3)[nH]c2-c2ccnc(Br)c2)c1 | no
COc1ccc(-c2[nH]ncc2-c2cc3c(c(OC)c2)OCC(=O)N3)cc1 | no
O=C(CCOCCNC(=O)COc1ccc2c(c1)OCC(c1ccc(F)cc1)C2=O)NCCCC(O)(P(=O)(O)O)P(=O)(O)O (centres undefined) | yes
Cn1cc(-c2ccc3cc(-c4ccc(CC(=O)Nc5cc(C(C)(C)C)nn5C)cc4)cnc3c2)cn1 | no
CCCCCCn1c(-c2ccc(C(=O)O/N=C(\N)c3ccc4ccccc4c3)cc2)nc(-c2ccccc2)c1-c1ccccc1 | yes

Prompt: Hi team, for CCCCCCCCCCCCCCCCCCOc1ccccc1CC(=O)OCC[N+](CC)(CC)CC , is the recorded growth at or above 30%?
Response: no

Prompt: Identify whether the reported growth of the following molecule is 30% or greater: CCOC(=O)c1cn2ncnc(Oc3ccc(NC(=O)NCCN(C)C)c(Cl)c3)c2c1C
Response: yes

Prompt: Please check the record CC1(C)C2CC1C1(/C=N/NC(N)=S)C(C2)C(C#N)(C#N)C1(C#N)C#N (centres undefined) and state if its growth is at or above 30%.
Response: yes

---

Listed below: growth values for each entry.
Test system: SK-MEL-2 melanoma
Assay: NCI-60 one-dose screen, 48 h (100 = growth as untreated, 0 = no growth, -100 = all killed)
Conditions: 10 µM unless noted
Compounds without any hit were thinned out: in the full panel of roughly 83,000, 20% have a hit.
Express it in %; write the number only.

Below, each entry is followed by its recorded growth result.
MOLECULE | RESULT_TYPE | UOM | READOUT_VALUE
CC(=O)OC[C@H]1OC(Sc2sc(C(=O)c3ccc(C)cc3)c(N)c2-c2nc3ccccc3s2)[C@H](OC(C)=O)[C@@H](OC(C)=O)[C@@H]1OC(C)=O (stereo not given in full) | growth | % | 93.6
O=c1n(Cc2ccc3ccccc3c2)ccn1Cc1ccc2ccccc2c1 | growth | % | 83
CCCCC[C@H](O)C/C=C1/C(=O)C=C[C@@H]1C/C=C\CCCC(=O)OC | growth | % | 89.2
COC(=O)/C=C1\S/C(=N\Nc2ccc([N+](=O)[O-])cc2[N+](=O)[O-])N(C2CCCCC2)C1=O | growth | % | 90.5
COc1ccc(NC(=O)n2nc(/C=C\c3ccc(O)c(OC)c3)cc2/C=C\c2ccc(O)c(OC)c2)cc1 | growth | % | 21.4
NCCOc1ncccc1/C=C1\c2ccccc2-c2ccc(C(F)F)cc21 | growth | % | 115

Here is the next item to consider.
Prompt: Which growth is reported for this molecule? COc1ccc(CNC(=O)[C@H](O)[C@@H](N)Cc2ccccc2)cc1
Response: 123

---

System: NCI/ADR-RES ovarian
Assay: NCI-60 one-dose screen, 48 h (100 = growth as untreated, 0 = no growth, -100 = all killed)
Conditions: 10 µM unless noted
About 83,000 compounds went through this panel and 20% of them were active in at least one assay; those are over-represented in the sample as a whole.
We label by threshold. Values of growth strictly beneath 80% are fulfilled. Values of 80% and up are not fulfilled.

These solved cases illustrate the format of a correct answer.
SAMPLE_SMILES | CATEGORY_LABEL
Cc1[nH]c(C(=O)Nc2ccc(C(=O)NCCN)cc2OC(C)C)c(Cl)c1Cl | not fulfilled
Cc1cc(C)c(-c2c(N)cc(Br)cc2Br)c(N)c1 | fulfilled
CN1CCN(c2ccc(-c3ccc4ncc(C#N)c(Nc5ccc(F)c(Cl)c5)c4c3)cn2)CC1 | fulfilled
CCCCCCN(CCCCCC)c1ccc(/C=C2/SC(=O)NC2=O)c(C)c1 | not fulfilled

Consider the additional molecule presented here.
Prompt: is_below(growth, 80%) for CCCCCCCCCCCCCCCCCCOc1ccccc1CC(=O)OCC[N+](CC)(CC)CC ?
Response: not fulfilled

---

System: HT29 colon
Assay: NCI-60 one-dose screen, 48 h
Details: 10 µM unless noted
Compounds without any hit were thinned out: in the full panel of roughly 83,000, 20% have a hit. The source made the active and inactive calls. How the source made its calls: active means growth percent below 10; inactive means the rest.
Output constraint: value belongs to True = active, False = inactive

COMPOUND | CATEGORY_LABEL
Cc1ccc2sc3c(NCCN)nc4ccccc4c3c(=O)c2c1 | False
Cc1cc(C)c(-c2c(N)cc(Br)cc2Br)c(N)c1 | False
CCOC(=O)Cn1c(C)c(/C=N/NC(=O)c2cc3c(ccc4ccccc43)o2)c2ccccc21 | True
COc1ccc(-c2nnc(COc3ccc(Cl)cc3Cl)o2)cc1OC | False
COc1cc(CCC[P+](c2ccccc2)(c2ccccc2)c2ccccc2)c(OC)c2c1OCO2 | False

Prompt: Give the logged outcome of this assay for the following compound: COc1ccc(-c2nn(C(=O)c3cc(OC)c(OC)c(OC)c3)c3cc(N)ccc23)cc1
Response: True

Prompt: Hi team, can someone confirm the assay call for CC(C)(C)NC(=O)C(OC(=O)c1cccc(Cl)c1)c1ccc(Cl)cc1 (stereo not given) ?
Response: False

Prompt: What outcome does the record of this test show for Cc1cc(=O)[nH]c(=O)n1Cc1cn(-c2c3ccccc3nc3ccccc23)nn1 ?
Response: False

Prompt: Could you kindly confirm the outcome this assay logged for COc1ccc(C2NC(=O)C(C#N)c3c2sc2c(F)cccc32)c(OC)c1 (stereo not given) ?
Response: False

Prompt: Hi, sorry to bother you, what did the test record for COC(=O)[C@H](C)NC(=O)NC(=O)NC(=O)CI ?
Response: False

Prompt: Answer briefly: the call reported for Cc1nc2ccccc2c(/C=C/c2ccccc2)c1C(=O)/C=C/c1ccc(C(F)(F)F)cc1 in this assay.
Response: True

---

Tested on: IGROV1 ovarian
Assay: NCI-60 one-dose screen, 48 h
Details: 10 µM unless noted
This is part of a sample that, as a whole, favours compounds with a hit. Of some 83,000 tested, about 20% had one in any assay. Calls of active or inactive are those of the source. Rule for the calls: active = growth percent below 10; inactive = the rest.
Answer with one of the outcomes y (active), n (inactive)

Please review the entries below; each comes with its answer.
SAMPLE_SMILES | CATEGORY_LABEL
CCCCN(C)N=Nc1ccc(C(N)=O)cc1 | n
Oc1ccc(C#CCOc2ccccc2)cc1CNCCN(Cc1ccccn1)Cc1ccccn1 | n
C#Cc1cccc(NC(=O)Nc2ccccc2NC(=O)CCl)c1 | y
O=c1n(Cc2ccc3ccccc3c2)ccn1Cc1ccc2ccccc2c1 | n
Cc1nc2ccccc2c(/C=C/c2ccccc2)c1C(=O)/C=C/c1ccc(C(F)(F)F)cc1 | y

Prompt: Hi team, can someone confirm the assay call for O=C(O)CCC(=O)Nc1nnc(-c2ccccc2)s1 ?
Response: n

Prompt: Entry O=C(Cc1ccc(F)c(Cl)c1)Nc1cc(C2(C(F)(F)F)CC2)nn1CC1CCCCC1 : call = ?
Response: n

Prompt: How did this test come out for COc1ccc(CN2c3ccccc3CCc3ccccc32)cc1F ?
Response: n

Prompt: What call does the record list for CCCSc1nc2ccc(C)cc2cc1/C=[N+](\[O-])c1ccccc1 ?
Response: n

Prompt: Given CS(=O)(=O)Nc1cc(-c2ccc3ncnc(Nc4cccc(Cl)c4F)c3c2)cnc1Cl , state the outcome it received in this test.
Response: y

Prompt: Please let me know the test result on file for CCOC(=O)c1cn2ncnc(Oc3ccc(NC(=O)NCCN(C)C)c(Cl)c3)c2c1C .
Response: n

---

Tested on: SN12C renal
Experiment: NCI-60 one-dose screen, 48 h (100 = growth as untreated, 0 = no growth, -100 = all killed)
Conditions: 10 µM unless noted
Protocol: Growth inhibition of the SN12C human tumor cell line is measured as a screen for anti-cancer activity. Cells are grown in 96 well plates and exposed to the test compound for 48 hours. Compounds are tested at a single concentration, which is 10^-5 M for most compounds. The reported endpoint is percent growth (GI% or GIPRCNT), where numbers from 0 - 100% represent growth inhibition, and numbers from -100% - 0 represent cell death. For example, a value of 40 represents 60% growth inhibition. […]
The panel holds about 83,000 compounds, 20% with a hit somewhere; the sample as a whole holds those more often.
RESULT_TYPE: growth (%)
Write the answer as a number in %, unit excluded.

Solved entries:
MOLECULE | growth (%)
Cc1ncc(C(=O)Nc2ccc(CN3CCN(C)CC3)c(C(F)(F)F)c2)cc1C#Cc1ccc(N)nc1 | 2.89
CN(C(=O)NCc1cccc(F)c1Cl)[C@H](COC(=O)Nc1cc2ccccc2cn1)CC(O)CO (some centres not stated) | 86.1
CCc1cccc2c3c(sc12)C(c1ccc(F)cc1)C(C#N)=C(N)O3 (configuration not stated) | 32.7

Prompt: Give its growth value. Item: CCOC(=O)c1c(C)nc2c(c1N)CC(=O)N2Cc1ccc(F)cc1
Response: 93.2
